- procedureSummary: protein stability index of a GFP-peptide fusion (GPS, HEK-293T) (PSI 1-6); higher = more stable;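 also: 24-mer peptide tiles fused after GFP, lentivirally expressed, FACS-sorted into six equal bins by GFP/DsRed ratio, decoded by Illumina sequencing, PSI is the read-weighted mean bin number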
- condition: treatment: DMSO; c terminus: a fixed tail appended
Parameter threshold = 4. Response is condition met when protein stability index meets or exceeds it, else condition not met.

Worked set:
sequenceInput	labelValue
TQQNRKLTDFYPVRRSSRKSKAEL [KMT5A]	condition not met
LTDGHFENILADNSVNDQTKILVV [SERPINB5]	condition not met
IANYELVYKDGEHGEEQRITIEPG [PTPRD]	condition met
RAALICLTLVLVASVLLQAVLYPR [CD207]	condition not met

Hi, just wondering whether EEWLLVGTKQGHLLLYRIRKDVGC [VPS39] shows protein stability index of 4 or higher.
condition not met

Hi, just wondering whether GSNPPYLPFRDASFGNCTYNLTIL [CDC14A] shows protein stability index of 4 or higher.
condition not met

Hi, just wondering whether GVSFSTVENELMISYLMFLQILVY [FAM98B] shows protein stability index of 4 or higher.
condition not met

Hi, just wondering whether FSEEDEEETTSQDWGTPRELTFSY [RTN2] shows protein stability index of 4 or higher.
condition met

Hi, just wondering whether VLGVADGVGGWRDYGVDPSQFSGT [PPTC7] shows protein stability index of 4 or higher.
condition not met

Hi, just wondering whether STTNSTAAKPAASITSKPATLTTT [ZNF207] shows protein stability index of 4 or higher.
condition met

Hi, just wondering whether NYSSSQDALISVSYTIITPLFNPM [OR10K2] shows protein stability index of 4 or higher.
condition not met

Hi, just wondering whether EIVGNLGEGTFGKVVECLDHARGK [CLK3] shows protein stability index of 4 or higher.
condition not met
